The origin of these recorded values is ChEMBL document CHEMBL1201862.

# System: SK-MEL-28
# Assay overview: NCI tumour cell line growth inhibition, 48 h
The source made the active and inactive calls. Rule as the data show it: active = GI50 up to about 1.1 µM and inactive = higher.
Measurement type: GI50

Query (compound): `CCOC(=O)[C@@]1(C)C=C2O[C@@H]3OC4(CCCCC4)O[C@@H]3C2=C2C(O)=CC=C(O)[C@]21C(=O)OC` ; field requested: GI50 > 68.1 µM (inactive)

Query (compound): `O=C(c1ccccc1)N1CCN(C(=S)N(C(=O)c2ccccc2)c2ccccc2)C1=S` ; field requested: GI50 3.27 µM (inactive)

Query (compound): O=C1C2CC[C@@H]3C(=O)C(Cl)(Cl)[C@@H]3CCC2C1(Cl)Cl (stereo partly drawn) ; field requested: GI50 > 100 µM (inactive)

Query (compound): `CC(=O)Nc1ccc(SC#N)c2c(NC(C)=O)cccc12` ; field requested: GI50 84.3 µM (inactive)

Query (compound): O=C(C#Cc1ccccc1)N1c2ccccc2CC1c1c[nH]c2ccccc12 (stereo not drawn) ; field requested: GI50 14.9 µM (inactive)

Query (compound): `C/C=C/C[C@@H](C)[C@@H](O)[C@H]1C(=O)N[C@@H](CC)C(=O)N(C)CC(=O)N(C)[C@@H](CC(C)C)C(=O)N[C@@H](C(C)C)C(=O)N(C)[C@@H](CC(C)C)C(=O)N[C@@H](C)C(=O)N[C@H](C)C(=O)N(C)[C@@H](CC(C)C)C(=O)N(C)[C@@H](CC(C)C)C(=O)N(C)[C@@H](C(C)C)C(=O)N1C` ; field requested: GI50 5.68 µM (inactive)

Query (compound): `C[n+]1cn(CC(=O)c2ccccc2)c(C(N)=O)c1N` ; field requested: GI50 > 100 µM (inactive)

Query (compound): `CC(C)C(=O)N1Cc2cc(Cl)cc(Cl)c2OC(=O)c2ccccc21` ; field requested: GI50 42.4 µM (inactive)

Query (compound): `CCCCCCOc1ccc(NC2=C(Cl)C(=O)c3c(O)ccc(O)c3C2=O)cc1` ; field requested: GI50 2 µM (inactive)

Query (compound): `CSc1nc(NC2CCCC2)c2cc[nH]c2n1` ; field requested: GI50 92 µM (inactive)

Query (compound): OCC1C(OCc2ccccc2)C(OCc2ccccc2)C(OCc2ccccc2)CN1Cc1ccccc1 (stereo not drawn) ; field requested: GI50 88.9 µM (inactive)

Query (compound): `CCOP(=O)(OCC)/C(C#N)=C/c1coc2cc(C)cc(C)c2c1=O` ; field requested: GI50 > 100 µM (inactive)

Query (compound): `C=C1C(=O)[C@@]23CC[C@H]4[C@@](C)(CCC[C@@]4(C)C(=O)OC)[C@@H]2CC[C@]1(O)C3` ; field requested: GI50 1.84 µM (inactive)

* * *

# Test system: EKVX
# Assay overview: NCI tumour cell line growth inhibition, 48 h
Calls of active or inactive are those of the source. Cut-off read from the data, not from the text of the source: active = GI50 up to about 1.1 µM and inactive = higher.
Measurement type: GI50

Query (compound): `Nc1ccc2c(=O)cc(-c3ccc(Br)s3)[nH]c2n1` ; field requested: GI50 7.59 µM (inactive)

Query (compound): O=c1[nH]c(=O)n(C2C(CO)OC(CO)C2O)cc1F (stereo not drawn) ; field requested: GI50 > 100 µM (inactive)

Query (compound): `CC(=O)OC(Cc1ccc2ccccc2n1)(C(F)(F)F)C(F)(F)F` ; field requested: GI50 4.62 µM (inactive)
